System: midbrain pp38
test: Midbrain pp38 protein expression in MPTP Parkinson's disease model mouse (western-blotting)
Format: in vivo
measurement context: midbrain total protein, GAPDH internal reference, gavage 21 days after MPTP modeling
# strict inequality: Expression (pp38/GAPDH) < 0.4 yields true, everything else yields false

Problem: Lab log: compare recorded Expression (pp38/GAPDH) with 0.4; is it strictly lower for CC(C)(C)c1ccc(CS(=O)(=O)/C=C/c2ccc(O)c(O)c2)cc1 [Compound 3G, reference compound] ?
Solution: false

Problem: Confirm or reject: Expression (pp38/GAPDH) of CCN(CC)C(=O)Oc1ccc(/C=C/S(=O)(=O)Cc2ccc(C(F)(F)F)cc2)cc1OC(=O)N(CC)CC lies strictly below 0.4
Solution: true

Problem: Report whether reported Expression (pp38/GAPDH) is lower than 0.4 (strictly) for CC[Si](CC)(Oc1ccc(C(Cl)S(=O)(=O)/C=C/c2ccc(OC(=O)N3CC(C)OC(C)C3)c(OC(=O)c3cccc(Cl)c3OC)c2)cc1)c1ccccc1 (stereo not drawn)
Solution: false

Problem: Lab note: confirm whether the reported Expression (pp38/GAPDH) for this compound is below 0.4, equality not counting. compound: Cc1ccc(N2CCN(C(=O)Oc3ccc(/C=C/S(=O)(=O)CCCC(c4ccc(OC(=O)CN(C)C)cc4)N(C)C)cc3OC(=O)N(C)c3ccccc3)CC2)cc1 (stereo not drawn) [Compound P1-1]
Solution: false

Problem: Item O=C(/C=C/c1ccc(O)c(O)c1)OCCc1ccccc1 [Positive control group, caffeic acid phenethyl ester, reference compound] : Expression (pp38/GAPDH) beneath 0.4, strictly?
Solution: false
